Data credit: patent US8952128B2

subject.of.test: hSSTR2 (Homo sapiens (Human), UniProt P30874)
Sequence (P30874 whole entry): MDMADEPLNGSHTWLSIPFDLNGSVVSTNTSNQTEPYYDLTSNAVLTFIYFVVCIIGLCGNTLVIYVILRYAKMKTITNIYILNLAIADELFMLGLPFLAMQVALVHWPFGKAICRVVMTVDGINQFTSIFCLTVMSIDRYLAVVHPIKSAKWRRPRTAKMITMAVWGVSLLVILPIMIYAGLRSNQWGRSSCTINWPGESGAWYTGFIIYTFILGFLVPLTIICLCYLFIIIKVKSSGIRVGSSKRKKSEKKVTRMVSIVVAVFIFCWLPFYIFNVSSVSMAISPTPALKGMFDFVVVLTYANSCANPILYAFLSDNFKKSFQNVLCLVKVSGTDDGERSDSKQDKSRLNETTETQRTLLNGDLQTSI
test.description: Intracellular calcium mobilization assay (FLIPR Calcium 4), hSSTR2;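 also: agonist activity read as intracellular calcium rise in cells expressing human SSTR2, loaded with a calcium-sensitive dye for 60 min at 37 °C, measured by FLIPR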
Format: cell-based
condition.notes: read-out: hSSTR2 % Emax ± SEM
readout.type: Emax (%)

compound: C[C@@H](O)[C@@H]1NC(=O)[C@H](CCCCN)NC(=O)[C@@H](Cc2c[nH]c3ccccc23)NC(=O)[C@H](Cc2ccncc2)NC(=O)[C@H](Cc2ccccc2)NC(=O)[C@H](CCCNC(=N)N)NC(=O)[C@H](NC[C@H](Cc2ccc(O)cc2)NC(=O)C[S+]([O-])C[C@@H]2C[C@@H]3c4cccc5[nH]cc(c45)C[C@H]3N(C)C2)CCCCNC(=O)[C@H](Cc2ccccc2)NC1=O (stereo partly shown)
subject.of.test: hSSTR2 (Homo sapiens (Human), UniProt P30874)
readout.type: Emax
measurement: 99.9
